Recorded values, source the RNAGym collection of RNA variant scans (doi:10.1073/pnas.2313332121).

B1: TPR 5TU (parent)
chain: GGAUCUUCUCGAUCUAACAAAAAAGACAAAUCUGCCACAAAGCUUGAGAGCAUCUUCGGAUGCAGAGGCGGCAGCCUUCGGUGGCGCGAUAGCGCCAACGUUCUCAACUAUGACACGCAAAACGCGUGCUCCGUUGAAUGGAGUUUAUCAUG

# Variants of: B1
# experiment description: polymerase ribozyme fitness, log enrichment relative to wild type (log ratio); higher = more active; in vitro selection for triplet polymerase activity
Variants at the floor of the assay were thinned out.
Recorded polymerase ribozyme fitness (log ratio) for the following variants
endpoint label: polymerase ribozyme fitness (log ratio)

1) C18U C54U C93G A119C : ≤ -4.2
2) C36U A60C C63U C103G : ≤ -4.2
3) A24G C116G : -2.85
4) G34U C79G G92U C93G U109A G143C : ≤ -4.2
5) U82A A115U U135A : -2.53
6) A28G C54U C93A U127A : ≤ -4.2
7) U15A G50U G86A C114U : -3.13
8) G71A C85G C87U : ≤ -4.2
9) C85U A115G : -2.3
10) C76A C87U A142G : -1.46
11) C116U C125U U146C : -0.74
12) G81A C118A U148C : -2.6
13) U31A U53A G68U C95A C149G : ≤ -4.2
14) C54G G92C A106G : -2.99
15) A22U C27U C36U A98U : -3.64
16) A17C C18A C57A C95U C99G A113G G133A G152U : -4.06
17) C32G C79U C96G A142C : -3.79
18) U44A G48A G58C G83A : ≤ -4.2
19) A17G A20C A30G G46A G59U G67C G68U G70U C96G : ≤ -4.2
20) G80A C85U G136A G143C : -1.57
21) A37U C38U C76G C93U C96A C118U G143U : ≤ -4.2
22) G84A A150G : -0.63
